# measuredTarget: DMPK Catalytic Domain (Homo sapiens, UniProt Q09013)
# Construct: For all of them, we expressed and purified the catalytic domain separately; His-tag; made in house; host or cells: Escherichia coli
# Sequence (Q09013 71-339 limits assumed): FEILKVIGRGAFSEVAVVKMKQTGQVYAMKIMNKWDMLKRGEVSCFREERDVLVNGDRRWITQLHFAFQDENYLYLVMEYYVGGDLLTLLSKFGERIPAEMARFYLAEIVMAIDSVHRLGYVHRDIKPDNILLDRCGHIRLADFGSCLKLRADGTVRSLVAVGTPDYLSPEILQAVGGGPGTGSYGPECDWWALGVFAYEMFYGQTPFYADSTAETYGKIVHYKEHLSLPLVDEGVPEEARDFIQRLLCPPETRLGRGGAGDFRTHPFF
# method: Differential Scanning Fluorimetry (DSF) Tm shift
# Assay type: binding
# runConditions: 2 µM protein, 10 µM inhibitor, average of 3 experiments, each in duplicate
Mark Yes for reported Melting temperature (Tm) shift of 0.4 degrees Celcius or greater; mark No for anything smaller.

Examples with answers:
O=C1NC(=O)C(c2cn(CCCn3ccnc3)c3ccccc23)=C1Nc1ccccc1 ... Yes
COc1cc2ncnc(Nc3ccc(NC(=O)c4ccccc4)cc3)c2cc1OC ... No
Nc1ncnc2c1c(I)cn2[C@@H]1O[C@H](CO)[C@@H](O)[C@H]1O ... No
N#CC(c1ccnc(NCCc2cccnc2)n1)c1nc2ccccc2s1 (centres unmarked) ... Yes

Query: hey, is Melting temperature (Tm) shift for this one >= 0.4 degrees Celcius? O=C1NC(=O)C(=Cc2ccc(-c3ccc(F)cc3O)o2)S1
Reply: No

Query: Follow-up item: Cc1ccc([N+](=O)[O-])cc1S(=O)(=O)N(C)N=Cc1cnc2ccc(Br)cn12.Cl.O.O
Reply: Yes

====

Provide the reported Melting temperature (Tm) shift of each item.
# measuredTarget: STK3 Catalytic domain+SARAH (Homo sapiens)
# Construct: for 8, we also made a longer version containing one or more additional domains; His-tag; made in house; host or cells: Escherichia coli
# method: Differential Scanning Fluorimetry (DSF) Tm shift
# Format: binding
# runConditions: 2 µM protein, 10 µM inhibitor, average of 3 experiments, each in duplicate
Answers are plain numbers, in degrees Celcius.

Look over these answered cases.
O=C1C(Cl)=C(N2C(=O)CCC2=O)C(=O)c2ccccc21 ... 0.1
CN[C@@H]1C[C@H]2O[C@@](C)([C@@H]1OC)n1c3ccccc3c3c4c(c5c6ccccc6n2c5c31)C(=O)N[C@@H]4O ... 12.7
Cc1cc(Nc2nc(-c3ccccc3)nc3ccccc23)n[nH]1 ... 0.9

Field: next molecule
Query: Item CCCCn1c2ccc(O)cc2c2c3c(c(-c4ccccc4Cl)cc21)C(=O)NC3=O has what recorded Melting temperature (Tm) shift?
Reply: 1.2

====

# measuredTarget: CDK2 + Cyclin E (Homo sapiens, UniProt P24941)
# Construct: CDK2 (P24941); 1–299; His-tag; made in house; host or cells: Escherichia coli
# method: Differential Scanning Fluorimetry (DSF) Tm shift
# Type: binding
# runConditions: CDK2 + Cyclin E; 2 µM protein, 10 µM inhibitor; average of 3 experiments, each in duplicate
Would you mind telling me the reported Melting temperature (Tm) shift of each entry?
Give bare numbers, in degrees Celcius.

COc1cc2ncnc(Nc3ccc(OCc4ccccc4)cc3)c2cc1OC ... 0.1
N#CC(c1ccnc(NCCc2cccnc2)n1)c1nc2ccccc2s1 (stereo not shown) ... 0.3

Below are 2 compounds. Give each one its Melting temperature (Tm) shift.
1. O=C1Nc2ccc(Cl)cc2C1=Cc1cc(Cl)c(O)c(Cl)c1 [PKR Inhibitor, Negative Control]
2. Cn1cc(/C=C2\C(=O)Nc3ccc(S(N)(=O)=O)cc32)c2ccccc21

Reply:
1: 0.6; 2: 0.4

====

So I've got a bunch of molecules here, and I need their Melting temperature (Tm) shift values.
# measuredTarget: STK3 Catalytic domain+SARAH (Homo sapiens)
# Construct: for 8, we also made a longer version containing one or more additional domains; His-tag; made in house; host or cells: Escherichia coli
# method: Differential Scanning Fluorimetry (DSF) Tm shift
# Type: binding
# runConditions: 2 µM protein, 10 µM inhibitor, average of 3 experiments, each in duplicate
Give bare numbers, in degrees Celcius.

Answered cases to consult:
c1cc(-c2cnn3cc(-c4ccc(OCCN5CCCCC5)cc4)cnc23)ccn1 ... 0.4
NC(=O)Nc1cc(-c2ccccc2)sc1C(N)=O ... 1.4
COc1cc2ncnc(Nc3ccc(Cl)cc3Cl)c2cc1OC ... 0.6
N#Cc1c(-c2ccccc2)cc(-c2cc(Br)ccc2O)[nH]c1=O ... 0.2

Could you now consider this next molecule?
Query: # query: Melting temperature (Tm) shift of entry O=C1NC(=O)c2c1c1c3ccccc3[nH]c1n1cncc21 [Isogranulatimide]
Reply: 1.3

====

# measuredTarget: SRC Catalytic Domain+SH2+SH3 (Homo sapiens, UniProt P12931)
# Sequence (P12931 84-523 limits assumed): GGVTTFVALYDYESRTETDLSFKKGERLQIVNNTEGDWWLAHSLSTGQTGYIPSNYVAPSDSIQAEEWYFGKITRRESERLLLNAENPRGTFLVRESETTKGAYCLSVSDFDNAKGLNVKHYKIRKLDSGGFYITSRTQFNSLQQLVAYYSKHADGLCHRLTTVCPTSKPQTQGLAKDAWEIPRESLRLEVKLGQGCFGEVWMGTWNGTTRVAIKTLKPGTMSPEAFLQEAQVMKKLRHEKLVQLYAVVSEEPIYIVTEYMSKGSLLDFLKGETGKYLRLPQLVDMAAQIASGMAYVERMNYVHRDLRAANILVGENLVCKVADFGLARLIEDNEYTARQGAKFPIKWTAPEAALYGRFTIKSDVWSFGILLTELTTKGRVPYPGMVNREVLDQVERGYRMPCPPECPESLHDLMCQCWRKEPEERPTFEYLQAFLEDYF
# method: Differential Scanning Fluorimetry (DSF) Tm shift
# Assay type: binding
# runConditions: 2 µM protein, 10 µM inhibitor, average of 3 experiments, each in duplicate
Label Met when Melting temperature (Tm) shift >= 0.8 degrees Celcius; otherwise Not met.

Solved cases below.
O=C1C(Cl)=C(N2C(=O)CCC2=O)C(=O)c2ccccc21 [MEK Inhibitor II] ... Not met
c1nc2nc(Nc3ccc(N4CCOCC4)cc3)nc(NC3CCCCC3)c2[nH]1 [Reversine] ... Met
NC(=O)Nc1sc(-c2ccccc2)cc1C(N)=O [IKK-2 Inhibitor VI] ... Met

Query: hey, is Melting temperature (Tm) shift for this one >= 0.8 degrees Celcius? O.O=C1NCCc2[nH]c(-c3ccnc(-c4cnc5ccccc5c4)c3)cc21 [MK-2 Inhibitor III]
Reply: Not met

Query: Can you check Cn1cc(/C=C2\C(=O)Nc3ccc(S(N)(=O)=O)cc32)c2ccccc21 [Syk Inhibitor] next?
Reply: Not met

Query: Can you handle O=C1NC(=O)C(=Cc2cccc(C(F)(F)F)c2)S1 [PIM1/2 Kinase Inhibitor V] next?
Reply: Not met

====

# measuredTarget: STK3 Catalytic domain+SARAH (Homo sapiens, UniProt Q13188)
# Construct: for 8, we also made a longer version containing one or more additional domains; His-tag; made in house; host or cells: Escherichia coli
# Sequence (Q13188 whole entry, the tested form may be a part): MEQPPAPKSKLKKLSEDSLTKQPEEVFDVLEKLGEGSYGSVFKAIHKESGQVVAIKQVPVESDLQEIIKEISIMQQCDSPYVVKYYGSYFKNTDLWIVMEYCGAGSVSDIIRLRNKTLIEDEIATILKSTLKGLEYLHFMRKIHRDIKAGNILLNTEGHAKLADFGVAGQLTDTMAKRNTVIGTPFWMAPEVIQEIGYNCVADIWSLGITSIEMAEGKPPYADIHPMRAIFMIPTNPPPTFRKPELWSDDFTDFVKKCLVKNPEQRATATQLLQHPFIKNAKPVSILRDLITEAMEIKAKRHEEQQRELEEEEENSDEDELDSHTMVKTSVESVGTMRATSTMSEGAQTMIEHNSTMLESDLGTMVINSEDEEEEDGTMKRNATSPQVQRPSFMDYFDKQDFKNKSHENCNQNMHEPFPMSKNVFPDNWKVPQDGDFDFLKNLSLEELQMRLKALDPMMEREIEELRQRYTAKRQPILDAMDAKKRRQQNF
# method: Differential Scanning Fluorimetry (DSF) Tm shift
# Assay type: binding
# runConditions: 2 µM protein, 10 µM inhibitor, average of 3 experiments, each in duplicate
Hi all, reminder that labels come from Melting temperature (Tm) shift, split as low (below 0.5 degrees Celcius), intermediate (0.5 degrees Celcius to below 2 degrees Celcius), high (2 degrees Celcius or more)

Query: Field: class (Melting temperature (Tm) shift) — entry: CC(C)n1cnc2c(Nc3cccc(Cl)c3)nc(NCCO)nc21
Reply: intermediate

====

# measuredTarget: FES Catalytic Domain+SH2 (Homo sapiens)
# Construct: for 8, we also made a longer version containing one or more additional domains; His-tag; made in house; host or cells: Escherichia coli
# Sequence (P07332 448-822 limits assumed): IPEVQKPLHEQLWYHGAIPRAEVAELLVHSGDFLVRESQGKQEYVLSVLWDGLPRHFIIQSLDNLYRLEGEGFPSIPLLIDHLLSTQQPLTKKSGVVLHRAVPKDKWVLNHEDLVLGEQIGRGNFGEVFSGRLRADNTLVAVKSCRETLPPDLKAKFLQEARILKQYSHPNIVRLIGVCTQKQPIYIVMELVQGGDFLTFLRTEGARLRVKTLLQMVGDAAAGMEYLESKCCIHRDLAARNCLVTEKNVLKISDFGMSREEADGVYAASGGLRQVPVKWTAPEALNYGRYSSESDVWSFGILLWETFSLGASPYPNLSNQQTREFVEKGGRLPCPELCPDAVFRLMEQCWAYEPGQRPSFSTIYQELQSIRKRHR
# method: Differential Scanning Fluorimetry (DSF) Tm shift
# Format: binding
# runConditions: 2 µM protein, 10 µM inhibitor, average of 3 experiments, each in duplicate
Lab note: compare Melting temperature (Tm) shift against 0.3 degrees Celcius. Equal or greater, write satisfied. Smaller, write not satisfied.

Cc1cc(Nc2nc(-c3ccccc3)nc3ccccc23)n[nH]1 [GSK-3 Inhibitor XIII] ... not satisfied
O=C(c1ccc(Nc2nccc(-c3cc4ccccc4s3)n2)cc1)N1CCC(N2CCCC2)CC1 [IKK Inhibitor VII] ... satisfied
CC(C)n1cnc2c(Nc3cccc(Cl)c3)nc(NCCO)nc21 [Compound 52] ... satisfied
Cc1nc(N)sc1-c1ccnc(Nc2cccc([N+](=O)[O-])c2)n1 [Cdk2/9 Inhibitor] ... not satisfied
N#Cc1cnc2cnc(NCc3cccnc3)cc2c1Nc1ccc(F)c(Cl)c1 [Tpl2 Kinase Inhibitor] ... not satisfied

Query: Given NC(=O)Nc1sc(-c2ccccc2)cc1C(N)=O [IKK-2 Inhibitor VI] , state whether its Melting temperature (Tm) shift is at least 0.3 degrees Celcius.
Reply: satisfied

Query: Input O=C1C(Cl)=C(N2C(=O)CCC2=O)C(=O)c2ccccc21 [MEK Inhibitor II]
Reply: not satisfied

Query: Please answer likewise for CCCC(=O)Oc1ccc2[nH]c(C(=O)c3cc4ccccc4[nH]3)cc2c1
Reply: not satisfied

Query: // query: c1cc(-c2cnn3cc(-c4ccc(OCCN5CCCCC5)cc4)cnc23)ccn1 [AMPK Inhibitor, Compound C]
Reply: satisfied

Query: Record: CN(C)CCCn1cc(C2=C(c3c[nH]c4ccccc34)C(=O)NC2=O)c2ccccc21 [Bisindolylmaleimide I]
Reply: satisfied

====

# measuredTarget: FAK2 Catalytic Domain (Homo sapiens, UniProt Q14289)
# Construct: For all of them, we expressed and purified the catalytic domain separately; His-tag; made in house; host or cells: Escherichia coli
# Sequence (Q14289 425-683 limits assumed): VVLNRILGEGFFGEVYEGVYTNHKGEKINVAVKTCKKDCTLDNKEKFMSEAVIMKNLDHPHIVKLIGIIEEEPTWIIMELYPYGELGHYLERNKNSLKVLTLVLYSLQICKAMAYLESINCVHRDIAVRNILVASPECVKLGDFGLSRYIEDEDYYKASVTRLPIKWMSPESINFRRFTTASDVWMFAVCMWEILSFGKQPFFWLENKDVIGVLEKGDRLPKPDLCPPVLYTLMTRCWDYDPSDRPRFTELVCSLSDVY
# method: Differential Scanning Fluorimetry (DSF) Tm shift
# Assay type: binding
# runConditions: 2 µM protein, 10 µM inhibitor, average of 3 experiments, each in duplicate
readoutLabel: Melting temperature (Tm) shift (degrees Celcius)
Answers are plain numbers, in degrees Celcius.

Hi there! I need Melting temperature (Tm) shift for each item below, if you can.
1. CC(C)(C)c1nc2c3cc[nH]c(=O)c3c3cc(F)ccc3c2[nH]1
2. CCN(CC)C(=O)c1ccc(Nc2nc(OCC3CCCCC3)c3[nH]cnc3n2)cc1
3. O=c1c(O)c(-c2ccc(O)c(O)c2)oc2cc(O)c(O)c(O)c12
4. CC[C@@H](CO)Nc1nc(NCc2ccccc2)c2ncn(C(C)C)c2n1 (single isomer, unassigned) [Roscovitine, (S)-Isomer]
5. Cc1ccc([N+](=O)[O-])cc1S(=O)(=O)N(C)N=Cc1cnc2ccc(Br)cn12.Cl.O.O
6. Cl.Cl.NCCNc1ncc(C(N)=O)c(Nc2cccc(C(F)(F)F)c2)n1

Reply:
3.0
2.4
0.2
0.2
1.6
1.9

Query: What measured Melting temperature (Tm) shift goes with Cl.Cl.O=S(=O)(NCCNC/C=C/c1ccc(Br)cc1)c1cccc2cnccc12 [H-89, Dihydrochloride] ?
Reply: 0.8
